Biological target: T1, SNTB1, Q13884
T1 sequence (Q13884 107-205, limits assumed, looked up): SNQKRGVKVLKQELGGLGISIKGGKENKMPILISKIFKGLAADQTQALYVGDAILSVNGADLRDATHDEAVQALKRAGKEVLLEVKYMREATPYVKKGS
Assay: holdup assay
Parameters: key: below the threshold = too weak to quantify, mostly under pKd 3.1 to 4
Conditions: plain residues with an end cap or a label only (N-terminal biotin on a linker: ado-ado)
metric name: pKd
Give the value as a plain number.

[
  {
    "binder": "SRPHTNETSL [MCC, P23508]",
    "pKd": 4.67
  },
  {
    "binder": "DYSNLRETDI [ADRA1D, P25100]",
    "pKd": 5.57
  }
]

Ask: Give the reported pKd for this binder. KSRPENGTVC [TMEM178B, H3BS89]
Result: 3.56

Ask: Give the reported pKd for this binder. ADEMICITTL [CACNA1D, Q01668]
Result: 4.84

Ask: Give the reported pKd for this binder. PGKKPEDSRV [SLCO2B1, O94956]
Result: 3.94

Ask: Give the reported pKd for this binder. LPPPESESKV [KCNJ9, Q92806]
Result: 4.32

Ask: Give the reported pKd for this binder. KLQNPNQSVV [TYRP1, P17643]
Result: 3.72

Ask: Give the reported pKd for this binder. THHRKIHTRV [ZNF599, Q96NL3]
Result: 4.36
